Hey, just so you know, these numbers are from PubChem BioAssay AID1963983.

Tested on: 186277-243-T-J2-PDC multi-cell spheroid viability
experimental details: Anticancer human tumor 186277-243-T-J2-PDC patient-derived colon adenocarcinoma cell line growth inhibition [PI3K]
condition info: curve of first compound; second compound 0.01 µM
Listing of entries alongside the reported IC50.
observation type: IC50

[[record]]
molecule = "Cn1ncnc1[C@H]1c2n[nH]c(=O)c3cc(F)cc(c23)N[C@@H]1c1ccc(F)cc1 + COc1c(OCCCN2CCOCC2)ccc2c3n(c(=NC(=O)c4cnc(N)nc4)nc12)CCN3"
target = "186277-243-T-J2-PDC multi-cell spheroid viability"
observation_type = "IC50"
result = "> 100 nM"

[[record]]
molecule = "CC(Cn1ccc(-c2ccc(C#N)c(Cl)c2)n1)NC(=O)c1cc(C(C)O)[nH]n1 (stereo not drawn) + CC(Nc1ccc2c(c1)OCCn1cc(N3C(=O)OCC3C(F)F)nc1-2)C(N)=O"
target = "186277-243-T-J2-PDC multi-cell spheroid viability"
observation_type = "IC50"
result = "> 10000 nM"

[[record]]
molecule = "CCN1CCN(Cc2ccc(Nc3ncc(F)c(-c4cc(F)c5nc(C)n(C(C)C)c5c4)n3)nc2)CC1 + CC(Nc1ccc2c(c1)OCCn1cc(N3C(=O)OCC3C(F)F)nc1-2)C(N)=O"
target = "186277-243-T-J2-PDC multi-cell spheroid viability"
observation_type = "IC50"
result = "> 1000 nM"


* * *

Test system: 186277-243-T-J2-PDC multi-cell spheroid viability
experimental details: Anticancer human tumor 186277-243-T-J2-PDC cell line growth inhibition [PI3K];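 further: spheroids exposed to compounds for seven days before viability reading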
condition info: second compound 3.16 µM; first compound 3.16 µM; stronger effect = lower value
// classify(record): look up viability, T/C in ranges lower segment (below 10%), middle segment (10% to below 50%), upper segment (50% or more)

[[record]]
compound = "Cn1ncc(Cl)c1-c1cc(C(=O)NC(CN)Cc2cccc(F)c2)sc1Cl (configuration not stated) + CC(Nc1ncnc2nc[nH]c12)c1cc2cccc(Cl)c2c(=O)n1-c1ccccc1"
label_value = "middle segment"

[[record]]
compound = "CC1(C)CCC(CN2CCN(c3ccc(C(=O)NS(=O)(=O)c4ccc(NCC5CCOCC5)c([N+](=O)[O-])c4)c(Oc4cnc5[nH]ccc5c4)c3)CC2)=C(c2ccc(Cl)cc2)C1 + Cc1nc(NC(=O)N2CCCC2C(N)=O)sc1-c1ccnc(C(C)(C)C(F)(F)F)c1"
label_value = "middle segment"

[[record]]
compound = "CNC(=O)c1ccc(N2C(=S)N(c3ccc(C#N)c(C(F)(F)F)c3)C(=O)C2(C)C)cc1F + Cc1nc(NC(=O)N2CCCC2C(N)=O)sc1-c1ccnc(C(C)(C)C(F)(F)F)c1"
label_value = "upper segment"

[[record]]
compound = "Cn1ncc(Cl)c1-c1cc(C(=O)NC(CN)Cc2cccc(F)c2)sc1Cl (configuration not stated) + Cc1nc(NC(=O)N2CCCC2C(N)=O)sc1-c1ccnc(C(C)(C)C(F)(F)F)c1"
label_value = "lower segment"

[[record]]
compound = "C[C@@H](NC(=O)c1ncnc(N)c1Cl)c1ncc(C(=O)Nc2cc(C(F)(F)F)c(Cl)cn2)s1 + Cc1nc(NC(=O)N2CCCC2C(N)=O)sc1-c1ccnc(C(C)(C)C(F)(F)F)c1"
label_value = "middle segment"

[[record]]
compound = "CC1(C)CCC(Nc2ncc(C(F)(F)F)c(-c3c[nH]c4c(P(C)(C)=O)c(C#N)ccc34)n2)CN1 (configuration not stated) + CC(Nc1ncnc2nc[nH]c12)c1cc2cccc(Cl)c2c(=O)n1-c1ccccc1"
label_value = "upper segment"

[[record]]
compound = "Cn1nccc1Nc1nccc(-c2ccn(C(CO)c3ccc(Cl)c(F)c3)c(=O)c2)n1 (configuration not stated) + CC(Nc1ncnc2nc[nH]c12)c1cc2cccc(Cl)c2c(=O)n1-c1ccccc1"
label_value = "middle segment"

[[record]]
compound = "C#Cc1c(F)ccc2cc(O)cc(-c3ncc4c(N5CC6CCC(C5)N6)nc(OCC56CCCN5CC(F)C6)nc4c3F)c12 (configuration not stated) + Cc1nc(NC(=O)N2CCCC2C(N)=O)sc1-c1ccnc(C(C)(C)C(F)(F)F)c1"
label_value = "lower segment"

[[record]]
compound = "C[C@@H](NC(=O)c1ncnc(N)c1Cl)c1ncc(C(=O)Nc2cc(C(F)(F)F)c(Cl)cn2)s1 + CC(Nc1ncnc2nc[nH]c12)c1cc2cccc(Cl)c2c(=O)n1-c1ccccc1"
label_value = "upper segment"

[[record]]
compound = "CC(C)NCC(C(=O)N1CCN(c2ncnc3c2C(C)CC3O)CC1)c1ccc(Cl)cc1 (configuration not stated) + CC(Nc1ncnc2nc[nH]c12)c1cc2cccc(Cl)c2c(=O)n1-c1ccccc1"
label_value = "middle segment"

